target: T1, rhNav1.7α+β1-β2-β3 (rhesus monkey α subunit with human β …); assay: binding FACS, CHO FlpIn cells
T1 construct: P2A cleaves it into α, β1, β2, β3; also called rhNav1.7-beta1-beta2-beta3

[
  {
    "Binder": "F0103262C02 (parental)-FLAG-HIS6 (VHH, also called F0103262CO2; F103262CO2) VHH: EVQLVESGGGLVQAGGSLTLSCAASGLPFGLYILGWIRRAPGKERDFVAAISRSGRDTVYANSVKGRFTISRDNAKNMVYLRMDNLRPEDTAAYYCAVDSVPRGTPTITESEYAIWGQGTLVTVSS",
    "binding result": "no binding"
  },
  {
    "Binder": "F0103265B04 (parental)-FLAG-HIS6 (VHH) VHH: EVQLVESGGGLVQPGGSLRLSCAAPSFIFSNNYMEWYRQAPGKQRDWVARITGRGNTNYLDSVKGRFTISRDDAKNTVYLEIDSLKPEDTAVYYCSALWYGGRAWGKGTLVTVSS",
    "binding result": "no binding"
  },
  {
    "Binder": "F0103262B06 (parental)-FLAG-HIS6 (VHH) VHH: EVQLVESGGGLVQPGGSLRLSCAGSTRTFSTYAMGWFRQAPGREREFVAHINFSGSSTRYADSVKGRFTISRDNAKNMGYLQMNSLKPEDTAVYYCAARWVAGPPRYDYEYWGQGTLVTVSS",
    "binding result": "no binding"
  },
  {
    "Binder": "F0103387G05 (parental)-FLAG-HIS6 (VHH) VHH: EVQLVESGGGLVQAGGSLRLSCDASGRILRIGYMRWHRQGAGKQREFVARITDDSATDYADSVKGRFTISRDNAKNTVYLQMNNLNPEDTAVYYCEALVTASVRGGSIHSGTYWGRGTLVTVSS",
    "binding result": "no binding"
  }
]
